These data points were gathered from patent US10471046B2.

Test system: S. aureus
Test: Minimum inhibitory concentrations (MICs) for S. aureus of exemplary compounds (Table 2)
Assay type: cell-based
Conditions: Staphylococcus aureus, minimum inhibitory concentrations for S. aureus; read-out: MICs
Excerpt: Exemplary compounds in accordance with the invention are listed in Table 2 with their minimum inhibitory concentrations (MICs) (μg/mL) for S. aureus: Furthermore, the antibiotic compounds can be assayed for anti-proliferative or anti-infective properties on a cellular level. For example, where the target organism is a microorganism, the activity of compounds of interest can be assayed by growing the microorganisms of interest in media either containing or lacking the compound. […]

- SMI: "CC(=O)NC[C@H]1CN(c2ccc(-c3ccc(CN4CC[C@@H](N)C4)cc3)c(F)c2)C(=O)O1"
  STUDY_SYSTEM: "S. aureus"
  MIC: "2 µg/mL"
- SMI: "COc1cc(CN(Cc2ccc(-c3ccc(N4C[C@H](CNC(C)=O)OC4=O)cc3F)cc2)Cc2ccc(O)c(OC)c2)ccc1O"
  STUDY_SYSTEM: "S. aureus"
  MIC: "2 µg/mL"
- SMI: "CC(=O)NC[C@H]1CN(c2ccc(-c3ccc(CNCc4csnn4)c(F)c3)c(F)c2)C(=O)O1"
  STUDY_SYSTEM: "S. aureus"
  MIC: "1 µg/mL"
- SMI: "CC(=O)NC[C@H]1CN(c2ccc(-c3ccc(CNCCSc4ncc[nH]4)cc3)c(F)c2)C(=O)O1"
  STUDY_SYSTEM: "S. aureus"
  MIC: "2 µg/mL"
- SMI: "CC(=O)NC[C@H]1CN(c2ccc(-c3ccc(CNC(=O)[C@@H]4C[C@@H](O)CN4C(=O)OC(C)(C)C)cc3)c(F)c2)C(=O)O1"
  STUDY_SYSTEM: "S. aureus"
  MIC: "16 µg/mL"
- SMI: "COc1ccc(CN(C)Cc2ccc(-c3ccc(N4C[C@H](CNC(C)=O)OC4=O)cc3F)cc2)cn1"
  STUDY_SYSTEM: "S. aureus"
  MIC: "2 µg/mL"
- SMI: "O=C1O[C@@H](Cn2ccnn2)CN1c1ccc(-c2ccc(Cn3cccn3)cc2)c(F)c1"
  STUDY_SYSTEM: "S. aureus"
  MIC: "0.5 µg/mL"

----------
test system: S. aureus; test: Minimum inhibitory concentrations (MICs) for S. aureus of exemplary compounds (Table 2); type: cell-based; conditions: Staphylococcus aureus, minimum inhibitory concentrations for S. aureus; read-out: MICs
Criterion: MIC strictly under 2 µg/mL. Met: 1. Not met: 0.

- MOLECULE: "CC(=O)NC[C@H]1CN(c2ccc(-c3ccc(C(CO)NCc4csnn4)cc3)c(F)c2)C(=O)O1 (mixture of isomers) [Compound 4171]"
  DISCRETE_LABEL: 0
- MOLECULE: "CC(=O)NC[C@H]1CN(c2ccc(-c3ccc(Cn4ncnn4)cc3)c(F)c2)C(=O)O1 [Compound 1056]"
  DISCRETE_LABEL: 1
- MOLECULE: "CSCCN(Cc1ccccc1)C[C@@H](O)c1ccc(-c2ccc(N3C[C@H](CNC(C)=O)OC3=O)cc2F)cc1 [Compound 4248]"
  DISCRETE_LABEL: 0
- MOLECULE: "CSc1nc(CNCc2ccc(-c3ccc(N4C[C@H](CNC(C)=O)OC4=O)cc3F)cc2)ccc1C#N [Compound 4128]"
  DISCRETE_LABEL: 1
- MOLECULE: "CC(=O)NC[C@H]1CN(c2ccc(-c3ccc(Cn4cnc5c(N)ncnc54)cc3)c(F)c2)C(=O)O1 [Compound 1110]"
  DISCRETE_LABEL: 1
- MOLECULE: "CC(=O)NC[C@H]1CN(c2ccc(-c3ccc(CNCc4cccc5ccccc45)cc3)c(F)c2)C(=O)O1 [Compound 4022]"
  DISCRETE_LABEL: 0
- MOLECULE: "CC(=O)NC[C@H]1CN(c2ccc(-c3ccc(CN(C)Cc4cc(Cl)cc(Cl)c4)cc3)c(F)c2)C(=O)O1 [Compound 4046]"
  DISCRETE_LABEL: 0
- MOLECULE: "CC(=O)NC[C@H]1CN(c2ccc(-c3ccc([C@@H](NCc4ccccn4)C(N)=O)cc3)c(F)c2)C(=O)O1 [Compound 4185]"
  DISCRETE_LABEL: 0
- MOLECULE: "CC(=O)NC[C@H]1CN(c2ccc(-c3ccc(C(=O)NCCc4scnc4C)cc3)c(F)c2)C(=O)O1 [Compound 4112]"
  DISCRETE_LABEL: 1
- MOLECULE: "CC(=O)NC[C@H]1CN(c2ccc(-c3ccc(CNCc4cnoc4)cc3)c(F)c2)C(=O)O1 [Compound 4038]"
  DISCRETE_LABEL: 1
- MOLECULE: "CC(=O)NC[C@H]1CN(c2ccc(-c3ccc(CNCc4nc5ccccc5[nH]4)cc3)c(F)c2)C(=O)O1 [Compound 4092]"
  DISCRETE_LABEL: 0
- MOLECULE: "CC(=O)NC[C@H]1CN(c2ccc(-c3ccc(Cn4cncn4)cc3)c(F)c2)C(=O)O1 [Compound 1037]"
  DISCRETE_LABEL: 1
